- STUDY_TARGET: Angiotensin II receptor (AT-1) type-1 (Rattus norvegicus) (UniProt P29089+P25095)
- EXPERIMENT_SUMMARY: Antihypertensive activity in renal hypertensive rats (RHR) at 30 mg/Kg dose after oral administration
- Assay type: functional, organism-based
REPORTED_ENDPOINT: Maximum blood pressure change (%)
Give the quantity in %, number only.

{"columns": ["MOL_SMILES", "REPORTED_ENDPOINT", "READOUT_UNIT", "TEST_RESULT"],
 "data": [
  ["CCCCc1ncc(/C=C2/C(=O)N(CCCC)C(=O)N2Cc2ccno2)n1Cc1ccc(C(=O)OC)cc1", "Maximum blood pressure change", "%", -23]
]}

molecule "CCCCc1ncc(/C=C2/C(=O)N(CCCC)C(=O)N2Cc2ccsc2)n1Cc1ccc(C(=O)O)cc1" , Maximum blood pressure change observed: -42

molecule "CCCCc1ncc(/C=C2/C(=O)NC(=O)N2CCCC)n1Cc1ccc(C(=O)O)cc1" , Maximum blood pressure change observed: -17

molecule "CCCCc1ncc(/C=C2/C(=O)N(CCCC)C(=O)N2Cc2cccs2)n1Cc1ccc(C(=O)OC)cc1" , Maximum blood pressure change observed: -28

molecule "CCCCc1ncc(/C=C2/C(=O)N(CCCC)C(=O)N2Cc2csc(C)n2)n1Cc1ccc(C2(C(=O)O)CCCC2)cc1" , Maximum blood pressure change observed: -16

molecule "CCCCc1ncc(/C=C2/C(=O)NC(=O)N2Cc2cccs2)n1Cc1ccc(C(=O)OC)cc1" , Maximum blood pressure change observed: -19

* * *

Listing: IC50 of selected compounds
- STUDY_TARGET: Angiotensin II receptor (AT-1) type-1 (Rattus norvegicus, UniProt P29089+P25095)
- EXPERIMENT_SUMMARY: Binding affinity expressed as IC50 to the Angiotensin II receptor, type 1, from rat liver membrane
Record the result as number plus unit.

Use the examples below as a reference point.
{"columns": ["MOL_SMILES", "STUDY_TARGET", "IC50"],
 "data": [
  ["CCCCc1ncc(/C=C2\\C(=O)N(CCCC)C(=O)N2Cc2cccs2)n1Cc1ccc(C(=O)O)cc1", "Angiotensin II receptor (AT-1) type-1 (Rattus norvegicus, UniProt P29089+P25095)", "0.6 nM"],
  ["CCCCc1ncc(/C=C2/C(=O)N(CCCC)C(=O)N2Cc2cccc(C)c2)n1Cc1ccc(C(=O)OC)cc1", "Angiotensin II receptor (AT-1) type-1 (Rattus norvegicus, UniProt P29089+P25095)", "18.5 nM"]
]}

Note: attention shifts to another entry.
I looked up "CCCCc1ncc(/C=C2/C(=O)N(CCCC)C(=O)N2Cc2cc(C)on2)n1Cc1ccc(C(=O)OC)cc1" and its IC50 for Angiotensin II receptor (AT-1) type-1 (Rattus norvegicus, UniProt P29089+P25095) was 8.5 nM

* * *

Listing: IC50 of selected molecules
- STUDY_TARGET: Angiotensin II receptor (AT-1) type-1 (Rattus norvegicus, UniProt P29089+P25095)
- EXPERIMENT_SUMMARY: Binding affinity expressed as IC50 to the Angiotensin II receptor, type 1, from rat liver membrane
Give the quantity in nM, number only.

{"columns": ["MOL_SMILES", "IC50 (nM)"],
 "data": [
  ["CCCCc1ncc(/C=C2\\C(=O)NC(=O)N2Cc2cccs2)n1Cc1ccc(C(=O)O)cc1", 2.6],
  ["CCCCc1ncc(/C=C2/C(=O)N(CCCC)C(=O)N2Cc2c(C)noc2C)n1Cc1ccc(C(=O)OC)cc1", 198],
  ["CCCCc1ncc(/C=C2/C(=O)NC(=O)N2Cc2ccccc2)n1Cc1ccc(C(=O)O)cc1", 4],
  ["CCCCc1ncc(/C=C2/C(=O)N(CCCC)C(=O)N2C(c2ccccc2)c2ccccc2)n1Cc1ccc(C(=O)OC)cc1", 884],
  ["CCCCc1ncc(/C=C2/C(=O)N(CCCC)C(=O)N2Cc2cccc(Cl)c2)n1Cc1ccc(C(=O)OC)cc1", 117]
]}

I looked up "CCCCc1ncc(/C=C2/C(=O)N(CCCC)C(=O)N2Cc2ccc(OC)cc2)n1Cc1ccc(C(=O)OC)cc1" and its IC50 for Angiotensin II receptor (AT-1) type-1 (Rattus norvegicus, UniProt P29089+P25095) was 9.8

I looked up "CCCCc1ncc(/C=C2\C(=O)NC(=O)N2CCCC)n1Cc1ccc(-c2ccccc2-c2nn[nH]n2)cc1" and its IC50 for Angiotensin II receptor (AT-1) type-1 (Rattus norvegicus, UniProt P29089+P25095) was 2.7

I looked up "CCCCc1ncc(/C=C2/C(=O)NC(=O)N2Cc2cccs2)n1Cc1ccc(C(=O)O)cc1" and its IC50 for Angiotensin II receptor (AT-1) type-1 (Rattus norvegicus, UniProt P29089+P25095) was 2.3

I looked up "CCCCc1ncc(/C=C2/C(=O)NC(=O)N2CCCC)n1Cc1ccc(C(=O)O)cc1" and its IC50 for Angiotensin II receptor (AT-1) type-1 (Rattus norvegicus, UniProt P29089+P25095) was 2.8

I looked up "CCCCCN1C(=O)N(CCCC)C(=O)/C1=C/c1cnc(CCCC)n1Cc1ccc(C(=O)OC)cc1" and its IC50 for Angiotensin II receptor (AT-1) type-1 (Rattus norvegicus, UniProt P29089+P25095) was 6.1

I looked up "CCCCc1ncc(/C=C2/C(=O)N(CCCC)C(=O)N2Cc2ccc(C#N)cc2)n1Cc1ccc(C(=O)OC)cc1" and its IC50 for Angiotensin II receptor (AT-1) type-1 (Rattus norvegicus, UniProt P29089+P25095) was 11.1

I looked up "CCCCc1ncc(/C=C2/C(=O)N(COC)C(=O)N2Cc2csc(C)n2)n1Cc1ccc(C(=O)OC)cc1" and its IC50 for Angiotensin II receptor (AT-1) type-1 (Rattus norvegicus, UniProt P29089+P25095) was 47.8

I looked up "CCCCc1ncc(/C=C2/C(=O)NC(=O)N2CCCC)n1Cc1ccc(-c2nn[nH]n2)cc1" and its IC50 for Angiotensin II receptor (AT-1) type-1 (Rattus norvegicus, UniProt P29089+P25095) was 7.1

Sourced from ChEMBL document CHEMBL1128555
